Test system: AR mRNA
Assay: Dose-dependent antisense inhibition of human AR in HuVEC cells (electroporation, qRT-PCR RTS3559, IC50)
Format: cell-based
Conditions: Table 29; 750.0 nM, HuVEC, electroporation, approximately 16 hours
Oligonucleotides are written 5' to 3', each unit as a sugar letter and its base; * is a phosphorothioate linkage, no mark a phosphodiester; rarer units and linkages stand in square brackets, end groups in braces. Plain capitals give the bases only. k = constrained ethyl (cEt); [5mC] = 5-methylcytosine; d = 2'-deoxy (DNA)
Response key: criterion met means percent inhibition of AR, 750.0 nM >= 60%; criterion not met means percent inhibition of AR, 750.0 nM < 60%.

{"SUBSTANCE": "583613 (antisense kG*k[5mC]*kA*dA*dT*dG*dT*dG*d[5mC]*dA*dG*d[5mC]*dT*kA*kG*k[5mC]) [compound 583613]", "ASSIGNED_CLASS": "criterion met"}
{"SUBSTANCE": "583559 (antisense kA*kG*kT*d[5mC]*dT*dT*dT*dA*dG*d[5mC]*dA*dG*d[5mC]*kT*kT*kT) [compound 583559]", "ASSIGNED_CLASS": "criterion met"}
{"SUBSTANCE": "583542 (antisense kA*k[5mC]*kA*dG*d[5mC]*dA*d[5mC]*dT*dG*dG*dA*dG*d[5mC]*kG*kG*k[5mC]) [compound 583542]", "ASSIGNED_CLASS": "criterion not met"}

API: the following record is the query input.
// query Item 583571 (antisense kT*k[5mC]*kA*dG*dT*d[5mC]*d[5mC]*dT*dA*d[5mC]*d[5mC]*dA*dG*kG*k[5mC]*kA) [compound 583571] with percent inhibition of AR, 750.0 nM of 60% or above?
// result criterion not met

----------
Measured Hemoglobin of individual entries
Conditions: cynomolgus monkey, in vivo, sc, 40 mg/kg
Report the value in g/dL with no unit label.

{"SUBSTANCE": "TTGATTTAATGGTTGC [ISIS 579671] (cEt/MOE gapmer chemistry, further chemistry not given here)", "Hemoglobin [g/dL]": 12.5}
{"SUBSTANCE": "ISIS 584163: antisense compound targeted to human AR (GAACATTATTAGGCTA; 3-10-3 (S)-cEt gapmer, further chemistry not given here)", "Hemoglobin [g/dL]": 12.8}

// query Assign Hemoglobin to the following record: TGATTTAATGGTTGCA [ISIS 569221] (cEt/MOE gapmer chemistry, further chemistry not given here)
// result 12.9

----------
Measured percent inhibition of AR of individual entries
System: AR mRNA
Experiment: Dose-dependent antisense inhibition of human AR in HuVEC cells (electroporation, qRT-PCR RTS3559, IC50)
Format: cell-based
Details: 166.7 nM; HuVEC, ~16 h; Table 3
Oligonucleotides are written 5' to 3', each unit as a sugar letter and its base; * is a phosphorothioate linkage, no mark a phosphodiester; rarer units and linkages stand in square brackets, end groups in braces. Plain capitals give the bases only. k = constrained ethyl (cEt); [5mC] = 5-methylcytosine; d = 2'-deoxy (DNA)
Report the value in % with no unit label.

The examples below pair each entry with its known result.
{"SUBSTANCE": "549360 (kG*kG*kT*d[5mC]*dG*dA*dA*dG*dT*dG*d[5mC]*d[5mC]*d[5mC]*k[5mC]*k[5mC]*kT; antisense) [compound 549360]", "RESULT_UNITS": "%", "percent inhibition of AR": 58}
{"SUBSTANCE": "549377 (kA*kG*kG*dA*dT*dG*dA*dG*dG*dA*dA*dG*d[5mC]*kG*kG*k[5mC]; antisense) [compound 549377]", "RESULT_UNITS": "%", "percent inhibition of AR": 52}

Please turn your attention to the following entry.
// query Assign percent inhibition of AR to the following record: 549379 (kG*k[5mC]*kT*d[5mC]*d[5mC]*d[5mC]*dG*d[5mC]*d[5mC]*dT*d[5mC]*dG*d[5mC]*k[5mC]*kG*k[5mC]; antisense) [compound 549379]
// result 51
